Listing of recorded Anti-CD28 Fab signal in the presence of CD28 by entry.
biological target: T1, Anti-CD28 Fab (SEQ ID NOs: 202, 203); assay: phage binding ELISA, Fab on plate, CD28 as competitor;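 note: coated wells pre-incubated with CD28 antigen or with blocking buffer only, then crude clonal phage supernatant added briefly, and retained phage read out via HRP-linked anti-M13 antibody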
T1 construct: biotinylated and captured on neutravidin coated plates in the phage ELISA
T1 sequence (VH, as listed by the source, chain 1 of 2): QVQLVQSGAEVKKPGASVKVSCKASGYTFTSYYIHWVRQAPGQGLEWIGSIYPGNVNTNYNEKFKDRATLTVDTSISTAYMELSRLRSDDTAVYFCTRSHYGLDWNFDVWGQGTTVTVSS
T1 sequence (VL, as listed by the source, chain 2 of 2): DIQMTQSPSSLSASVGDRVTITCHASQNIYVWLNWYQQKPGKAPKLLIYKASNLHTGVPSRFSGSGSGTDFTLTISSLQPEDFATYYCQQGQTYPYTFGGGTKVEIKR
// print number alone

Please review the entries below; each comes with its answer.
binder="TCAAGAMWQWPVCL [Phage-1010]" reported_result=0.06
binder="PCSAGATYAWLYCV [Phage-1011]" reported_result=0.06

From here, focus on the item given below.
Inquiry: Look up and state reported Anti-CD28 Fab signal in the presence of CD28 for TCSAGATYSWPQCL [Phage-1003]
Reply text: 0.07
